Experiment Notes: NCI Yeast Anticancer Drug Screen. Data for the rad50 strain (AID 155);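 also: 0% = growth of vehicle-only cultures of the same strain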
Run Conditions: S. cerevisiae rad50 strain growth inhibition; at 50.0 µM; stronger effect = higher value
This is part of a sample that, as a whole, favours compounds with a hit. Of some 79,000 tested, about 15% had one in any assay.
Observable: growth inhibition (%)
Numbers only, in %.

Consider the following illustrative entries.
{"columns": ["Compound", "U", "growth inhibition"],
 "data": [
  ["COC(=O)/C(C#N)=C/c1cc(OC)c(O)cc1Br", "%", 48.6],
  ["CCCCCCCCCCCCCCCCOc1ccc(S(=O)(=O)N/N=c2/sc3ccc(S(=O)(=O)O)cc3n2C)cc1C(=O)O", "%", 79.6],
  ["CCOC(=O)CN1CCC(C(=O)CC2(O)C3(Cl)C4(Cl)C5(Cl)C(Cl)(Cl)C6(Cl)C4(Cl)C2(Cl)C6(Cl)C53Cl)CC1 (stereo unspecified)", "%", 98.8],
  ["COc1cc(F)ccn1", "%", -4.75],
  ["Clc1nc(Cl)c(Cc2ccccc2)c(Cl)n1", "%", 91]
]}

Hi team, please reply with growth inhibition for each item in this list.
1. O=C(OCCCC(C(=O)c1ccccc1)=P(c1ccccc1)(c1ccccc1)c1ccccc1)c1ccccc1
2. CCCCCCCCCCCCCCCCCC(=O)OC(C)CCC1CCCO1 (stereo unspecified)
3. CCCCCCCCCCCCCCC[N+]1(CC)CCCCC1
4. O=C(CC(O)(C(F)(F)F)C(F)(F)Cl)CC(O)(C(F)(F)F)C(F)(F)Cl (stereo unspecified)
5. CCOP(=O)(OCC)/C(C#N)=C/c1ccc(Oc2ccccc2)cc1
6. CCN(CC)CCNc1cc(C)nc2c1ccc1c2ccc2c(NCCN(CC)CC)cc(C)nc21
7. Cc1cc(OC(=O)CCl)ccc1C(C)(C)C
8. ClC(Cl)(Cl)C1=CC2c3ccccc3C1c1ccccc12

Response:
84.8
26.4
90.3
99.3
90.2
62.3
56.4
89.7

----------
Experiment Notes: NCI Yeast Anticancer Drug Screen. Data for the sgs1 mgt1 strain (AID 161);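 also: 0% = growth of cultures given vehicle only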
Run Conditions: S. cerevisiae sgs1 mgt1 strain, at 5.0 µM (retest, dose inferred, filed as 0.5)
This is part of a sample that, as a whole, favours compounds with a hit. Of some 79,000 tested, about 15% had one in any assay. Calls of active or inactive are those of the source. Cut-off read from the data, not from the text of the source: active = growth inhibition above about 70%; inactive = the rest.
Allowed answers: true (active), false (inactive)

Please review the following examples before continuing.
{"columns": ["Compound", "Classification"],
 "data": [
  ["CN(C)C(=O)c1cc(Br)cc(-c2ccccc2)c1O", "false"],
  ["CCOC(=O)C(=Cn1c(=S)[nH]c2ccc([N+](=O)[O-])cc21)C(=O)OCC", "false"],
  ["CN1CCC(/C=C/c2cccc3ccccc23)CN1 (stereo unspecified) (tested in a mixture with another compound)", "false"]
]}

Prompt: Answer briefly: the call reported for O=C1c2ccc3ccccc3c2CCC1[n+]1ccc2ccccc2c1 (stereo unspecified) in this assay.
Response: false

Prompt: // next record O=[N+]([O-])c1ccc(/C=N/O)s1
Response: false

Prompt: Another: CC1NS(=O)(=O)N(C)C1=O (stereo unspecified)
Response: false

Prompt: Lookup FC(F)(F)C(F)(F)C1(F)C(F)(F)C(F)(F)C(F)(F)C(F)(F)C1(F)F
Response: false

Prompt: Request: CCCn1cc2c(SC)nc(SC)nc2n1
Response: false

The measured values listed here are drawn from PubChem BioAssay (NCI).
